READOUT_KIND: pIC50
In plain terms, pIC50 is the concentration in mol/L turned into minus its base-10 logarithm.

## Task Report pIC50 under test system UniProtKB P00519 for `Cc1c2ccc(Nc3ccnc(Nc4ccc(S(=O)(=O)NC(=N)N)cc4)n3)cc2nn1C` .
Sequence (P00519 whole entry): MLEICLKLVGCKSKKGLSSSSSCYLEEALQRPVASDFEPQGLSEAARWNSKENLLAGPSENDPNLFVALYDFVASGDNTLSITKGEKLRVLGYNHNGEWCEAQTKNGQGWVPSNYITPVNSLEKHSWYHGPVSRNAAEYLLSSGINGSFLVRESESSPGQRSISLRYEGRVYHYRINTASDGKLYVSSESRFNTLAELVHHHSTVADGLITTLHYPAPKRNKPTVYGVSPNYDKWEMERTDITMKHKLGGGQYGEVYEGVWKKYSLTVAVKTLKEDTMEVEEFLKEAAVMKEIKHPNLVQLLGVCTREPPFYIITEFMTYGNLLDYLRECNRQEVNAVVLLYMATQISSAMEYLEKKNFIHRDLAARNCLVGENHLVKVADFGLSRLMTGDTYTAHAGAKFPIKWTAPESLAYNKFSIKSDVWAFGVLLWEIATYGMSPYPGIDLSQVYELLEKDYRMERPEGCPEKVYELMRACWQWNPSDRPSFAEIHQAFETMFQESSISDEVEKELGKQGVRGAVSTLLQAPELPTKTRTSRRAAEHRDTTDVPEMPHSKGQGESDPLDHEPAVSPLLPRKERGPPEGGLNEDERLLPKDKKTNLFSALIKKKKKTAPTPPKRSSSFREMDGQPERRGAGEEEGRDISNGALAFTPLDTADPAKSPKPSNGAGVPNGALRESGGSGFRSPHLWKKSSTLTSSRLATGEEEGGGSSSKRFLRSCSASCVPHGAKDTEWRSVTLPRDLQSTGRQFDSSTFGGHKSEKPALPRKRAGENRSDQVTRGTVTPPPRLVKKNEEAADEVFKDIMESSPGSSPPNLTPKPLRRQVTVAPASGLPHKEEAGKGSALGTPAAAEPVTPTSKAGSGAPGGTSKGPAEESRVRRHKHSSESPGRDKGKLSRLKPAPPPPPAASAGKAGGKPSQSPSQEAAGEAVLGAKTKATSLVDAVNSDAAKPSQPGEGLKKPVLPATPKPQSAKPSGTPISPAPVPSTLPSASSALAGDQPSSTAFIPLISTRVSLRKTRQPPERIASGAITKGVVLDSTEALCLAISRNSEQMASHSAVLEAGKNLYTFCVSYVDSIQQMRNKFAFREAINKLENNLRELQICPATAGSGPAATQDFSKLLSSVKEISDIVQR
## Result 6.03

## Task Report pIC50 under test system UniProtKB P00519 for `Cc1cc(C)nc(NS(=O)(=O)c2ccc(Nc3nccc(N(C)c4ccc5c(C)n(C)nc5c4)n3)cc2)n1` .
## Result 7.66

## Task Report pIC50 under test system UniProtKB P00519 for `Cc1cc(NS(=O)(=O)c2ccc(Nc3nccc(N(C)c4ccc5c(C)n(C)nc5c4)n3)cc2)no1` .
## Result 6.49

## Task Report pIC50 under test system UniProtKB P00519 for `Cc1ccnc(NS(=O)(=O)c2ccc(Nc3nccc(N(C)c4ccc5c(C)n(C)nc5c4)n3)cc2)n1` .
## Result 7.21

## Task Report pIC50 under test system UniProtKB P00519 for `Cc1c2ccc(Nc3ccnc(Nc4ccc(S(=O)(=O)Nc5ncccn5)cc4)n3)cc2nn1C` .
## Result 6.34

###

As a worked illustration, we turn to pIC50 data collected for Vascular endothelial growth factor receptor 2 (Homo sapiens, UniProt P35968).
In plain terms, pIC50 is the concentration in mol/L turned into minus its base-10 logarithm.

## Task Provide only the value of recorded pIC50 for `Cc1ccnc(NS(=O)(=O)c2ccc(Nc3nccc(N(C)c4ccc5c(C)n(C)nc5c4)n3)cc2)n1`
## Result 7.60

## Task Provide only the value of recorded pIC50 for `Cc1cc(C)nc(NS(=O)(=O)c2ccc(Nc3nccc(Nc4ccc5c(C)n(C)nc5c4)n3)cc2)n1`
## Result 6.92

## Task Provide only the value of recorded pIC50 for `Cc1c2ccc(N(C)c3ccnc(Nc4ccc(S(=O)(=O)NC(=N)N)cc4)n3)cc2nn1C`
## Result 6.14

## Task Provide only the value of recorded pIC50 for `Cc1cc(NS(=O)(=O)c2ccc(Nc3nccc(Nc4ccc5c(C)n(C)nc5c4)n3)cc2)no1`
## Result 5.79

## Task Provide only the value of recorded pIC50 for `Cc1c2ccc(N(C)c3ccnc(Nc4ccc(S(=O)(=O)Nc5ncccn5)cc4)n3)cc2nn1C`
## Result 7.54

## Task Provide only the value of recorded pIC50 for `Cc1c2ccc(Nc3ccnc(Nc4ccc(S(=O)(=O)Nc5ncccn5)cc4)n3)cc2nn1C`
## Result 7.47
